# RUN_DESCRIPTION: Hydrolysis in buffer solutions, release monitored by HPLC
# Format: physicochemical
# APPLIED_CONDITIONS: pH 7.3 Trisma buffer; 1 mg/ml in acetonitrile 80% / buffer solution 20%; read-out: t1/2 pH 7.3 (converted)
# Procedure: The compound is put into an acid medium (citrate buffer for pH 4.3 and […] buffer for pH 7.3) and release of CI-994 is monitored by HPLC. The hydrolysis of the compounds of the invention was carried out in buffer solutions (citrate buffer for pH 4.3 and […] for pH 7.3) at pH=4.3 and at pH=7.3. The concentration of the samples is 1 mg/ml in the solution: acetonitrile at 80% and buffer solution at 20%. […] In some cases the measurements were prolonged for 2 or 3 weeks, or even a month.
MEASUREMENT_LABEL: half-life at 1 mg/ml

1) C#CCOCCOCCOCCOCCn1cc(C(Nc2ccccc2NC(=O)c2ccc(NC(C)=O)cc2)(c2ccccc2)c2ccccc2)nn1    86.4 h
